Recorded pIC50 for the following compounds
# TARGET SYSTEM: Recombinant N-terminal GST tag full-length human HDAC8 (Homo sapiens, UniProt Q9BY41)
# Construct: Recombinant N-terminal GST tag full-length human HDAC8
# PROTOCOL NOTES: HDAC8 probe binding assay, time resolved fluorescence (TRF) format
# CONDITIONS USED: compounds grouped by IC50 range (Table 2)
pIC50: −log10 of the molar value.

{"COMPOUND": "O=C(NO)c1ccc2c(c1)N(Cc1ccc(C(=O)N3CCCCC3)cc1)C(=O)CO2", "pIC50": "7.00 to 7.60"}
{"COMPOUND": "COc1ccc(CN2C(=O)COc3ccc(C(=O)NO)cc32)cc1", "pIC50": "≥ 7.60"}
{"COMPOUND": "Cc1cccc(CN2C(=O)COc3ccc(C(=O)NO)cc32)c1", "pIC50": "≥ 7.60"}
{"COMPOUND": "O=C(NO)c1ccc2c(c1)N(Cc1cc3ccccc3cn1)C(=O)CO2", "pIC50": "≥ 7.60"}
{"COMPOUND": "COc1ccc(CN2CC(C(=O)N(C)C)Oc3ccc(C(=O)NO)cc32)cc1 (centres unmarked)", "pIC50": "7.00 to 7.60"}
{"COMPOUND": "O=C(NO)c1ccc2c(c1)N(Cc1cccc(C(F)(F)F)c1Cl)C(=O)CO2", "pIC50": "7.00 to 7.60"}
{"COMPOUND": "O=C(NO)c1ccc2c(c1)N(CCOCC(F)(F)F)C(=O)CO2", "pIC50": "7.00 to 7.60"}
{"COMPOUND": "CC1(C)Oc2ccc(C(=O)NO)cc2N(Cc2ccc(-c3ccccc3)cc2)C1=O", "pIC50": "7.00 to 7.60"}

###

Recorded IC50 for the following molecules
# TARGET SYSTEM: Full length human recombinant HDAC8 protein (Homo sapiens, UniProt Q9BY41)
# Construct: Full length human recombinant HDAC8 protein was expressed in baculoviral system; made in house
# Sequence (Q9BY41 whole entry): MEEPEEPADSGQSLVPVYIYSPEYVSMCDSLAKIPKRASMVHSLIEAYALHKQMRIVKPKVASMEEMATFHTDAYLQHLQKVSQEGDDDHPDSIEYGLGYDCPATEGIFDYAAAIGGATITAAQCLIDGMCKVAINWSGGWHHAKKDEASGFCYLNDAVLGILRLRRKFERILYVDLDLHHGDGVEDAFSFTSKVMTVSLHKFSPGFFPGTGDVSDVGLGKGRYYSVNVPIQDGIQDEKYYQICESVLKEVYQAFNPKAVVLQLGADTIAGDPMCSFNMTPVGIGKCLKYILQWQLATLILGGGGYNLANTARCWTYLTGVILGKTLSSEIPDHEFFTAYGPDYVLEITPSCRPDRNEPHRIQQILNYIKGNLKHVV
# PROTOCOL NOTES: In vitro histone deacetylase assay: enzymatic HDAC8 electrophoretic mobility shift assay
# Format: biochemical
# CONDITIONS USED: electrophoretic mobility shift assay; enzyme 1 nM; 2 μM fluorescently labeled peptide substrate RHKK(Ac)-NH2; 25° C.; 12 concentrations; read-out: HDAC8 IC50

{"MOLECULE": "O=C(NO)c1ccc2c(c1)OCCN2c1nc2ccccc2[nH]1 [Compound I-109]", "IC50": "> 1000 nM"}
{"MOLECULE": "O=C(NO)c1ccc2c(c1)N(Cc1cccc(C(F)(F)F)c1)CCS2(=O)=O [Compound I-81]", "IC50": "< 25 nM"}
{"MOLECULE": "O=C(NO)c1ccc2c(c1)N(Cc1ccccc1C(F)(F)F)C(=O)CO2 [Compound I-65]", "IC50": "100 to 1000 nM"}
{"MOLECULE": "CC(C)n1c(CN2CCOc3ccc(C(=O)NO)cc32)nc2ccccc21 [Compound I-28]", "IC50": "> 1000 nM"}
{"MOLECULE": "O=C(NO)c1ccc2c(c1)N(Cc1ccc(Cl)cc1)CCO2 [Compound I-118]", "IC50": "25 to 100 nM"}
{"MOLECULE": "Cc1nc(-c2ccccc2)sc1CN1C(=O)COc2ccc(C(=O)NO)cc21 [Compound I-76]", "IC50": "25 to 100 nM"}
{"MOLECULE": "COc1ccc(S(=O)(=O)N2CCOc3ccc(C(=O)NO)cc32)cc1 [Compound I-87]", "IC50": "100 to 1000 nM"}
{"MOLECULE": "COc1ccc(CN2C(=O)C(C(C)C)Oc3ccc(C(=O)NO)cc32)cc1 (centres unmarked) [Compound I-100]", "IC50": "< 25 nM"}
{"MOLECULE": "O=C(NO)c1ccc2c(c1)N(S(=O)(=O)c1ccccc1)CCO2 [Compound I-86]", "IC50": "100 to 1000 nM"}
{"MOLECULE": "COc1cc(CN2CCOc3ccc(C(=O)NO)cc32)ccc1S(C)(=O)=O [Compound I-138]", "IC50": "100 to 1000 nM"}
{"MOLECULE": "O=C(NO)c1ccc2c(c1)N(Cc1ccc(F)cc1Cl)C(=O)CO2 [Compound I-270]", "IC50": "< 25 nM"}
{"MOLECULE": "CS(=O)(=O)c1ccc(CN2CCS(=O)(=O)c3ccc(C(=O)NO)cc32)cc1 [Compound I-82]", "IC50": "< 25 nM"}
{"MOLECULE": "CC(C)=CCCN1C(=O)COc2ccc(C(=O)NO)cc21 [Compound I-44]", "IC50": "25 to 100 nM"}
{"MOLECULE": "O=C(NO)c1ccc2c(c1)N(Cc1nc3ccccc3n1CC1CC1)C(=O)CO2 [Compound I-279]", "IC50": "100 to 1000 nM"}
{"MOLECULE": "COc1ccc2oc(CN3C(=O)COc4ccc(C(=O)NO)cc43)nc2c1 [Compound I-285]", "IC50": "< 25 nM"}
{"MOLECULE": "COc1ccccc1CN1C(=O)COc2ccc(C(=O)NO)cc21 [Compound I-63]", "IC50": "100 to 1000 nM"}
{"MOLECULE": "CC(c1ccccc1)N1C(=O)COc2ccc(C(=O)NO)cc21 (centres unmarked) [Compound I-67]", "IC50": "25 to 100 nM"}
{"MOLECULE": "O=C(NO)c1ccc2c(c1)N(Cc1cccc(OC(F)(F)F)c1)C(=O)CO2 [Compound I-146]", "IC50": "< 25 nM"}
{"MOLECULE": "Cc1cccc(CN2CCOc3ccc(C(=O)NO)cc32)c1 [Compound I-122]", "IC50": "25 to 100 nM"}
{"MOLECULE": "O=C(NO)c1ccc2c(c1)N(CCOCC(F)(F)F)C(=O)CO2 [Compound I-53]", "IC50": "25 to 100 nM"}
{"MOLECULE": "O=C(NO)c1ccc2c(c1)N(Cc1c(Cl)cccc1Cl)CCO2 [Compound I-23]", "IC50": "100 to 1000 nM"}
{"MOLECULE": "CS(=O)(=O)c1ccc(CN2CCOc3ccc(C(=O)NO)cc32)c(C(F)(F)F)c1 [Compound I-137]", "IC50": "25 to 100 nM"}
{"MOLECULE": "CC(c1c(F)cccc1F)N1C(=O)COc2ccc(C(=O)NO)cc21 (centres unmarked) [Compound I-96]", "IC50": "25 to 100 nM"}
{"MOLECULE": "O=C(NO)c1ccc2c(c1)N(Cc1ccc(Cl)cc1Cl)C(=O)CO2 [Compound I-256]", "IC50": "< 25 nM"}
{"MOLECULE": "COc1ccccc1CN1CCOc2ccc(C(=O)NO)cc21 [Compound I-126]", "IC50": "100 to 1000 nM"}
{"MOLECULE": "COc1ccc(CN2CC(C)Oc3ccc(C(=O)NO)cc32)cc1 (centres unmarked) [Compound I-84]", "IC50": "25 to 100 nM"}
{"MOLECULE": "O=C(NO)c1ccc2c(c1)N(Cc1ccc(Cl)c(Cl)c1)C(=O)CO2 [Compound I-258]", "IC50": "< 25 nM"}
{"MOLECULE": "O=C(NO)c1ccc2c(c1)OC(C(=O)NC1CCOCC1)CN2Cc1ccccc1 (centres unmarked) [Compound I-8]", "IC50": "100 to 1000 nM"}
{"MOLECULE": "O=C(NO)c1ccc2c(c1)N(Cc1ccc(OC(F)(F)F)cc1)CCO2 [Compound I-19]", "IC50": "25 to 100 nM"}
{"MOLECULE": "CN(C)S(=O)(=O)c1ccc(OCCN2C(=O)COc3ccc(C(=O)NO)cc32)cc1 [Compound I-56]", "IC50": "25 to 100 nM"}
{"MOLECULE": "O=C(NO)c1ccc2c(c1)N(Cc1cccc(OC(F)F)c1)CCO2 [Compound I-132]", "IC50": "< 25 nM"}
{"MOLECULE": "O=C(NO)c1ccc2c(c1)N(Cc1ccccc1SC(F)(F)F)C(=O)CO2 [Compound I-262]", "IC50": "25 to 100 nM"}
{"MOLECULE": "O=C(NO)c1ccc2c(c1)N(Cc1cn3ccccc3n1)C(=O)CO2 [Compound I-216]", "IC50": "25 to 100 nM"}
{"MOLECULE": "O=C(NO)c1ccc2c(c1)N(Cc1nc(-c3ccccc3)sc1Cl)C(=O)CO2 [Compound I-255]", "IC50": "25 to 100 nM"}
{"MOLECULE": "COc1ccc(CN2C(=O)C(Cc3ccccc3)Oc3ccc(C(=O)NO)cc32)cc1 (centres unmarked) [Compound I-102]", "IC50": "25 to 100 nM"}
